Recorded values, source patent US9353104B2.

testSystem: human PDE10A2 (Homo sapiens (Human))
assayInfo: PDE10 fluorescence polarization (IMAP FP) inhibition assay
testConditions: human PDE10A2 lysate, FAM-labeled cAMP 50 nM, room temperature; read-out: PDE10A Ki
pKi: −log10 of the molar value.
Give true when the value for pKi is at least 10. Give false when it is less.

Exam item: hey, is pKi for this one >= 10? COc1ccc([C@H]2C[C@@H]2COc2cc(NCc3cc(C)nn3C)c(=O)n(C)n2)nc1 [Example 132]
Marked response: true

Exam item: hey, is pKi for this one >= 10? Cc1cccc([C@H]2C[C@@H]2COc2cc(NCc3ccccn3)c(=O)n(C)n2)n1 [Example 119]
Marked response: false

Exam item: hey, is pKi for this one >= 10? Cc1cc(CNc2cc(OC[C@H]3C[C@@H]3c3ccc(Cl)cn3)nn(C)c2=O)n(C)n1 [Example 33]
Marked response: true

Exam item: hey, is pKi for this one >= 10? Cc1ccc([C@H]2C[C@@H]2COc2cc(NCc3cnc(C)s3)c(=O)n(C)n2)nc1 [Example 13]
Marked response: true

Exam item: hey, is pKi for this one >= 10? COc1ccc([C@H]2C[C@@H]2COc2cc(NCc3cc(C)ccn3)c(=O)n(C)n2)nc1 [Example 105]
Marked response: false

Exam item: hey, is pKi for this one >= 10? COc1ccc([C@H]2C[C@@H]2COc2cc(NCc3nc(C)c(C)s3)c(=O)n(C)n2)nc1 [Example 126]
Marked response: true

Exam item: hey, is pKi for this one >= 10? COc1ccc([C@H]2C[C@@H]2COc2cc(NCc3c[nH]nn3)c(=O)n(C)n2)nc1 [Example 146]
Marked response: true

Exam item: hey, is pKi for this one >= 10? Cc1nc(CNc2cc(OC[C@H]3C[C@@H]3c3ccn(C)n3)nn(C)c2=O)cs1 [Example 48]
Marked response: false

Exam item: hey, is pKi for this one >= 10? Cc1ccc(CNc2cc(OC[C@H]3C[C@@H]3c3ccc(F)cn3)nn(C)c2=O)c(C)n1 [Example 53]
Marked response: true

Exam item: hey, is pKi for this one >= 10? COc1ccc([C@H]2C[C@@H]2COc2cc(NCc3nnc(C)s3)c(=O)n(C)n2)nc1 [Example 4]
Marked response: true

Exam item: hey, is pKi for this one >= 10? Cc1ccc([C@H]2C[C@@H]2COc2cc(NCc3nnc(C)s3)c(=O)n(C)n2)nc1 [Example 1]
Marked response: true

Exam item: hey, is pKi for this one >= 10? Cc1noc(C)c1CNc1cc(OC[C@H]2C[C@@H]2c2ccn(C)n2)nn(C)c1=O [Example 61]
Marked response: false

Exam item: hey, is pKi for this one >= 10? Cc1ccc(CNc2cc(OC[C@H]3C[C@@H]3c3ccn(C)n3)nn(C)c2=O)c(C)n1 [Example 51]
Marked response: true

Exam item: hey, is pKi for this one >= 10? COc1ccc(CNc2cc(OC[C@H]3C[C@@H]3c3ccc(F)cn3)nn(C)c2=O)cc1 [Example 15]
Marked response: false

Exam item: hey, is pKi for this one >= 10? Cn1ccc([C@H]2C[C@@H]2COc2cc(NCc3nccs3)c(=O)n(C)n2)n1 [Example 47]
Marked response: false

Exam item: hey, is pKi for this one >= 10? Cc1ccc([C@H]2C[C@@H]2COc2cc(NCc3cc(C)nn3C)c(=O)n(C)n2)nc1 [Example 14]
Marked response: true

* * *

testSystem: human PDE10A2 (Homo sapiens (Human), UniProt Q9Y233)
Sequence (Q9Y233 267-1055): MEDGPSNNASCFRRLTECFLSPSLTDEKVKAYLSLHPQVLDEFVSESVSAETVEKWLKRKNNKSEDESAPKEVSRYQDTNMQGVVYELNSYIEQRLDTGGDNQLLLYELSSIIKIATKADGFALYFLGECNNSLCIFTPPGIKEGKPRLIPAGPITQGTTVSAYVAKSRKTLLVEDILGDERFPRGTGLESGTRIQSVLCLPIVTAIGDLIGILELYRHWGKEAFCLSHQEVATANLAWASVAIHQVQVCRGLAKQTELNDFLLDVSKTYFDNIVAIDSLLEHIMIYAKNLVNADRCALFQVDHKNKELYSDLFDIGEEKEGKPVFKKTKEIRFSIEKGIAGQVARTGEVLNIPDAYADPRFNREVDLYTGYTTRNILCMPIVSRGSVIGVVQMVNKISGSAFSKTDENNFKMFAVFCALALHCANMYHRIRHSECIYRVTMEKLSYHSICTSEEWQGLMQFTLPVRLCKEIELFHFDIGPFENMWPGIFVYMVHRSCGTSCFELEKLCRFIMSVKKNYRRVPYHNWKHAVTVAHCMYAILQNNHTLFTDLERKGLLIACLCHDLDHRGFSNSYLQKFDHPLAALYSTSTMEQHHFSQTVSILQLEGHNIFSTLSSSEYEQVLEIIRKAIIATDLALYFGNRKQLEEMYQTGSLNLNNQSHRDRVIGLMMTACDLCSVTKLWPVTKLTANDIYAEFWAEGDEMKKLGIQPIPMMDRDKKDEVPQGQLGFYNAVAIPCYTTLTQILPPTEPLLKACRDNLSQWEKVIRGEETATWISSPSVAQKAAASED
assayInfo: PDE10 fluorescence polarization (IMAP FP) inhibition assay
testConditions: human PDE10A2 lysate, FAM-labeled cAMP 50 nM, room temperature; read-out: PDE10A Ki
valueType: Ki
Answer with the figure and its unit, nothing else.

Exam item: Given the entry "Cc1cc(CNc2cc(OC[C@H]3C[C@@H]3c3ccc4c(n3)CCC4)nn(C)c2=O)n(C)n1" , report its measured Ki.
Marked response: 1 pM

Exam item: Given the entry "Cc1cccc([C@H]2C[C@@H]2COc2cc(NCc3nnc(C)s3)c(=O)n(C)n2)n1" , report its measured Ki.
Marked response: 33 pM

Exam item: Given the entry "Cc1cnc(CNc2cc(OC[C@@H]3C[C@H]3c3nn(C)c4ccccc34)nn(C)c2=O)s1" , report its measured Ki.
Marked response: 118 pM

Exam item: Given the entry "COc1ccc([C@H]2C[C@@H]2COc2cc(NCc3ncc(C)s3)c(=O)n(C)n2)nc1" , report its measured Ki.
Marked response: 4 pM

Exam item: Given the entry "Cc1ccc([C@H]2C[C@@H]2COc2cc(NCc3nc(C)c(C)s3)c(=O)n(C)n2)nc1" , report its measured Ki.
Marked response: 45 pM

Exam item: Given the entry "CCc1cc(CNc2cc(OC[C@H]3C[C@@H]3c3ccn(C)n3)nn(C)c2=O)n(C)n1" , report its measured Ki.
Marked response: 295 pM

Exam item: Given the entry "COc1ccc([C@H]2C[C@@H]2COc2cc(NCc3cnn(C)c3)c(=O)n(C)n2)nc1" , report its measured Ki.
Marked response: 14 pM

Exam item: Given the entry "COc1ccc([C@H]2C[C@@H]2COc2cc(NCc3ccc(C)c(C)n3)c(=O)n(C)n2)nc1" , report its measured Ki.
Marked response: 410 pM

Exam item: Given the entry "CN(C)c1c(CNc2cc(OC[C@H]3C[C@@H]3c3ccn(C)n3)nn(C)c2=O)cnn1C" , report its measured Ki.
Marked response: 75000 pM

Exam item: Given the entry "Cc1nnc(CN(C)c2cc(OC[C@H]3C[C@@H]3c3ccc4ccccc4n3)nn(C)c2=O)s1" , report its measured Ki.
Marked response: 911 pM

Exam item: Given the entry "COc1ccc(CNc2cc(OC[C@H]3C[C@@H]3c3ccc(C)cn3)nn(C)c2=O)cc1" , report its measured Ki.
Marked response: 74 pM

Exam item: Given the entry "Cc1ccc([C@H]2C[C@@H]2COc2cc(NCc3ccc(C)nc3C)c(=O)n(C)n2)nc1" , report its measured Ki.
Marked response: 7 pM

Exam item: Given the entry "Cc1ncc(CNc2cc(OC[C@H]3C[C@@H]3c3ccn(C)n3)nn(C)c2=O)s1" , report its measured Ki.
Marked response: 89 pM

Exam item: Given the entry "Cc1nnc(CNc2cc(OC[C@H]3C[C@@H]3c3ccc(F)cn3)nn(C)c2=O)s1" , report its measured Ki.
Marked response: 535 pM

Exam item: Given the entry "COc1ccc([C@H]2C[C@@H]2COc2cc(NCc3ccc(C)nn3)c(=O)n(C)n2)nc1" , report its measured Ki.
Marked response: 39 pM

Exam item: Given the entry "Cc1cnc(CNc2cc(OC[C@H]3C[C@@H]3c3ccn(C)n3)nn(C)c2=O)s1" , report its measured Ki.
Marked response: 97 pM

* * *

Field: pKi. Provide a value for each of the compounds that follow.
testSystem: human PDE10A2 (Homo sapiens (Human))
assayInfo: PDE10 fluorescence polarization (IMAP FP) inhibition assay
testConditions: human PDE10A2 lysate, FAM-labeled cAMP 50 nM, room temperature; read-out: PDE10A Ki
# pKi: negative log10 of molar concentration; output just the value

Exam item: Given the entry "COc1ccc([C@H]2C[C@@H]2COc2cc(NCc3cc(C)on3)c(=O)n(C)n2)nc1" , report its measured pKi.
Marked response: 11.00

Exam item: Given the entry "Cc1cccc([C@H]2C[C@@H]2COc2cc(NCc3cccnc3)c(=O)n(C)n2)n1" , report its measured pKi.
Marked response: 8.89

Exam item: Given the entry "Cc1ccc([C@H]2C[C@@H]2COc2cc(NC(=O)c3cc(C)nn3C)c(=O)n(C)n2)nc1" , report its measured pKi.
Marked response: 7.29

Exam item: Given the entry "COc1ccc([C@H]2C[C@@H]2COc2cc(NCc3cc(C)no3)c(=O)n(C)n2)nc1" , report its measured pKi.
Marked response: 11.10

Exam item: Given the entry "COc1ccc(CNc2cc(OC[C@H]3C[C@@H]3c3ccc(OC)cn3)nn(C)c2=O)cc1" , report its measured pKi.
Marked response: 10.68

Exam item: Given the entry "COc1ccc([C@H]2C[C@@H]2COc2cc(NCc3ccccn3)c(=O)n(C)n2)nc1" , report its measured pKi.
Marked response: 9.15

Exam item: Given the entry "Cc1cc(CNc2cc(OC[C@H]3C[C@@H]3c3ccn(C)n3)nn(C)c2=O)n(C)n1" , report its measured pKi.
Marked response: 10.36

Exam item: Given the entry "Cc1ccc([C@H]2C[C@@H]2COc2cc(NCc3c(C)nn(C)c3Cl)c(=O)n(C)n2)nc1" , report its measured pKi.
Marked response: 8.82
